molecular target: UniProtKB P08581; assay: Enzymatic assay (ADP-Glo kinase reaction), c-MET; type: biochemical; settings: 10 μM ATP, 60 min, ADP-GLO luminescence
Sequence (P08581 25-1390): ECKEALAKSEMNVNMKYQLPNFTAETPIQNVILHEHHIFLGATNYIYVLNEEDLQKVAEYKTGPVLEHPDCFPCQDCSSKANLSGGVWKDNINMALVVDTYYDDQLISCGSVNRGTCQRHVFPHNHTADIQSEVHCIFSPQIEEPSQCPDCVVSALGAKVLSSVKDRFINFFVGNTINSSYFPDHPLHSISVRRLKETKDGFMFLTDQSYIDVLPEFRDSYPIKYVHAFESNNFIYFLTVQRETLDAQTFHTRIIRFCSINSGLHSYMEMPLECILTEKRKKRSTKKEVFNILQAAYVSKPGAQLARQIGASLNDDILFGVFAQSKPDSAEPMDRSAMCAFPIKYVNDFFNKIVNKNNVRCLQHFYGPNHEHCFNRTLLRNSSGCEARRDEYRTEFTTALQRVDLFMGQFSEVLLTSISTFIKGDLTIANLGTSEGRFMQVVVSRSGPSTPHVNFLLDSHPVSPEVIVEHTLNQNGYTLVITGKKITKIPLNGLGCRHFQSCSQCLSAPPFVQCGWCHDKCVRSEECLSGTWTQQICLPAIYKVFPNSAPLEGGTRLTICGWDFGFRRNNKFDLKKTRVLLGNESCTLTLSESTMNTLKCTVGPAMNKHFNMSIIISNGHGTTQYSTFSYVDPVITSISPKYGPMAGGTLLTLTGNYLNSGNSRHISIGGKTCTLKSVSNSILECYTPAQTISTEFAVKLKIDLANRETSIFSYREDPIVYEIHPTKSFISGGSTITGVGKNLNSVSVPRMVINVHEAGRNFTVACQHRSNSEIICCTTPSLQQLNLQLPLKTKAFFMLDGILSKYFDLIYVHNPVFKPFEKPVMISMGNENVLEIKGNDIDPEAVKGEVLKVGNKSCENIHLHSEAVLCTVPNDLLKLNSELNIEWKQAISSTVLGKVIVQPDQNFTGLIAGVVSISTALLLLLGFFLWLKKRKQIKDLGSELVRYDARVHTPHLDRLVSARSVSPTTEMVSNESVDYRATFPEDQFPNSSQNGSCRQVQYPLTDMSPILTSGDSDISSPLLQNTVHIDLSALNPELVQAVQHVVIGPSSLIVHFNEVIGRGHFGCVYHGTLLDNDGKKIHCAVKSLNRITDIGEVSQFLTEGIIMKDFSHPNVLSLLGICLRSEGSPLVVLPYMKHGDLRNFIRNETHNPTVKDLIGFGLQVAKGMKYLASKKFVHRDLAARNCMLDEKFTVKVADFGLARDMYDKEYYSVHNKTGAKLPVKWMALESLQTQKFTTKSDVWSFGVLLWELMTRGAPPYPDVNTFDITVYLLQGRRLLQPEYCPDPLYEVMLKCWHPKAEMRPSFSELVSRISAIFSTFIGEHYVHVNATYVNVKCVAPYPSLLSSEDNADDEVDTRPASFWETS
recorded.endpoint: IC50

Record excerpt, results attached:
>  <chemical.string>
Cc1nc(Cn2cc(C(=O)Nc3ccc(Oc4ccnc(N)c4C#CCN4CCOCC4)c(F)c3)c(=O)n(-c3ccc(F)cc3)c2=O)cs1

>  <target.of.assay>
UniProtKB P08581

>  <IC50>
< 1000 nM

$$$$
>  <chemical.string>
CC(C)n1cc(C(=O)Nc2ccc(Oc3ccnc(N)c3C#N)c(F)c2)c(=O)n(-c2ccc(F)cc2)c1=O

>  <target.of.assay>
UniProtKB P08581

>  <IC50>
< 10 nM

$$$$
>  <chemical.string>
CN1CCN(C(C)(C)C#Cc2c(Oc3ccc(NC(=O)c4cn(C5CCOCC5)c(=O)n(-c5ccc(F)cc5)c4=O)cc3F)ccnc2N)CC1

>  <target.of.assay>
UniProtKB P08581

>  <IC50>
< 100 nM

$$$$

# map each molecule to its IC50
1. CC(C)n1cc(C(=O)Nc2ccc(Oc3ccnc(N)c3C#CCN3CCNCC3)c(F)c2)c(=O)n(-c2ccc(F)cc2)c1=O
2. COCCN1CCC(C#Cc2c(Oc3ccc(NC(=O)c4cn(C(C)C)c(=O)n(-c5ccc(F)cc5)c4=O)cc3F)ccnc2N)CC1
3. CN1CCC(CC#Cc2c(Oc3ccc(NC(=O)c4cn(CC(=O)N(C)C)c(=O)n(-c5ccc(F)cc5)c4=O)cc3F)ccnc2N)CC1
4. Nc1nccc(Oc2ccc(NC(=O)c3c[nH]c(=O)n(-c4ccc(F)cc4)c3=O)cc2F)c1C#CCC1CCNCC1
5. COCCN1CCN(C(=O)/C=C/c2c(Oc3ccc(NC(=O)c4cn(C(C)C)c(=O)n(-c5ccc(F)cc5)c4=O)cc3F)ccnc2N)CC1
6. C=CCn1cc(C(=O)Nc2ccc(Oc3ccnc(N)c3C#CC(C)(C)N3CCOCC3)c(F)c2)c(=O)n(CC=C)c1=O

["< 10 nM", "< 10 nM", "< 10000 nM", "< 100 nM", "< 10 nM", "< 1000 nM"]

# map each molecule to its IC50
1. CN1CCC(CC#Cc2c(Oc3ccc(NC(=O)c4c[nH]c(=O)n(-c5ccc(F)cc5)c4=O)cc3F)ccnc2N)CC1
2. Cc1nc(Cn2cc(C(=O)Nc3ccc(Oc4ccnc(N)c4C#CC(C)(C)N4CCN(C)CC4)c(F)c3)c(=O)n(-c3ccc(F)cc3)c2=O)cs1
3. Nc1nccc(Oc2ccc(NC(=O)c3cn(C4CCOCC4)c(=O)n(-c4ccc(F)cc4)c3=O)cc2F)c1C#CCN1CCOCC1
4. CN(C)C(=O)Cn1cc(C(=O)Nc2ccc(Oc3ccnc(N)c3C#CCN3CCOCC3)c(F)c2)c(=O)n(-c2ccc(F)cc2)c1=O
5. CC(C)n1cc(C(=O)Nc2ccc(Oc3ccnc(N)c3C#CC(C)(C)N3CCNCC3)c(F)c2)c(=O)n(-c2ccc(F)cc2)c1=O
6. CC(C)n1cc(C(=O)Nc2ccc(Oc3ccnc(N)c3-c3ccc(Oc4ccccc4)cc3)c(F)c2)c(=O)n(-c2ccc(F)cc2)c1=O
7. COCCN1CCN(C(=O)C#Cc2c(Oc3ccc(NC(=O)c4cn(C(C)C)c(=O)n(-c5ccc(F)cc5)c4=O)cc3F)ccnc2N)CC1
8. CC(C)n1cc(C(=O)Nc2ccc(Oc3ccnc(N)c3C#CC(=O)N3CCOCC3)c(F)c2)c(=O)n(-c2ccc(F)cc2)c1=O

1. < 10 nM
2. < 100 nM
3. < 100 nM
4. < 10000 nM
5. < 1000 nM
6. < 10000 nM
7. < 10 nM
8. < 10 nM

# map each molecule to its IC50
1. COCCN1CCC(CC#Cc2c(Oc3ccc(NC(=O)c4cn(C(C)C)c(=O)n(-c5ccc(F)cc5)c4=O)cc3F)ccnc2N)CC1
2. CC(C)n1cc(C(=O)Nc2ccc(Oc3ccnc(N)c3C#CC3CCNCC3)c(F)c2)c(=O)n(-c2ccc(F)cc2)c1=O
3. Cn1nc(C(=O)Nc2ccc(Oc3ccnc(N)c3C#CCC3CCNCC3)c(F)c2)c(=O)n(-c2ccc(F)cc2)c1=O
4. CC(C)n1cc(C(=O)Nc2ccc(Oc3ccnc(N)c3C#CCC3CCNCC3)c(F)c2)c(=O)n(-c2ccc(F)cc2)c1=O
5. C=CCn1cc(C(=O)Nc2ccc(Oc3ccnc(N)c3C#CC(C)(C)N3CCN(C)CC3)c(F)c2)c(=O)n(CC=C)c1=O
6. CC(C)n1cc(C(=O)Nc2ccc(Oc3ccnc(N)c3/C=C/C(=O)N3CCNCC3)c(F)c2)c(=O)n(-c2ccc(F)cc2)c1=O
7. C=CCn1cc(C(=O)Nc2ccc(Oc3ccnc(N)c3C#CCC3CCNCC3)c(F)c2)c(=O)n(CC=C)c1=O
8. CC(C)N1CCC(CC#Cc2c(Oc3ccc(NC(=O)c4cn(C(C)C)c(=O)n(-c5ccc(F)cc5)c4=O)cc3F)ccnc2N)CC1

1. < 10 nM
2. < 100 nM
3. < 100 nM
4. < 10 nM
5. < 1000 nM
6. < 100 nM
7. < 100 nM
8. < 10 nM

Query: IC50; subject: `CC(C)n1cc(C(=O)Nc2ccc(Oc3ccnc(N)c3C#Cc3ccccn3)c(F)c2)c(=O)n(-c2ccc(F)cc2)c1=O`
< 10 nM
